The reported numbers originate from PubChem BioAssay (NCI).

system: RXF 393 renal; assay: NCI-60 one-dose screen, 48 h; conditions: 10 µM unless noted
About 83,000 compounds went through this panel and 20% of them were active in at least one assay; those are over-represented in the sample as a whole. The source made the active and inactive calls. The calls were made as follows: active = growth percent below 10; inactive = the rest.
# valid calls are active, inactive; nothing else

Consider the worked cases shown below.
- smiles.input: "Cc1cc(Nc2ncnc3ccc(NC4=NC(C)(C)CO4)cc23)ccc1Oc1ccn2ncnc2c1"
  assigned.class: "active"
- smiles.input: "Cc1ccc(N)cc1CN1C(=O)c2ccccc2C1=O"
  assigned.class: "inactive"
- smiles.input: "O=C(Nc1cccc([N+](=O)[O-])c1)c1ccc(Cl)c(Cl)c1"
  assigned.class: "inactive"
- smiles.input: "Cn1nccc1Nc1nccc(-c2ccn([C@H](CO)c3ccc(Cl)c(F)c3)c(=O)c2)n1"
  assigned.class: "inactive"
- smiles.input: "CC/C(=C(/c1ccc(Cl)cc1)c1ccc(OCCN2CCCCC2)cc1)c1ccc(Cl)cc1"
  assigned.class: "inactive"
- smiles.input: "CCn1c(-c2nonc2N)nc2c(C#CC(C)(C)O)ncc(OC[C@H]3CCCNC3)c21"
  assigned.class: "active"

// next entry
What classification did CN[C@@H]1C[C@H]2O[C@@](C)([C@@H]1OC)n1c3ccccc3c3c4c(c5c6ccccc6n2c5c31)C(=O)N[C@H]4O end up with in this test?
active
